Target: recombinant human mPGES-1 (Homo sapiens, UniProt O14684)
Sequence (O14684 1-152): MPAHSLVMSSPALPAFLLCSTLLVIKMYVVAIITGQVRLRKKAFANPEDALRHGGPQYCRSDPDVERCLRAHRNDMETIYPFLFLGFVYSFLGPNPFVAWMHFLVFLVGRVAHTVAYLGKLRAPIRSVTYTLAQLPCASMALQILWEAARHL
Assay: Assay B: mPGES-1 enzyme assay (modified)
Type: biochemical
Conditions: biological assay B (all other compounds); PGH2 final conc. 2 μM, HTRF; read-out: mPGES-1 inhibitory effect IC50
Protocol: Assay B: mPGES-1 Enzyme Assay (Modified) The aim of this assay is to determine the affinity of a test compound for the mPGES-1 enzyme. […] The fluorescence of Europium cryptate (maxex=307 nm, maxem=620 nm) and d2-PGE2 (maxex=620 nm, maxem=665 nm) are measured. The extent of the specific HTRF is measured as a ratio of the emission intensity at 665 nm vs. that at 620 nm at an excitation pulse of 320 nm. […]
ASSAY_ENDPOINT: IC50 (nM)

Worked examples follow.
{"COMPOUND": "CC(C)(C)C1CCC(NC(=O)c2cc(NC(=O)c3cc(CNC(=O)C(C)(C)C(F)(F)F)ccc3Cl)ccc2OCC(F)F)CC1 (stereo not drawn)", "ASSAY_ENDPOINT": "IC50", "OBSERVED": 5}
{"COMPOUND": "CC(C)(C(=O)NCc1ccc(Cl)c(C(=O)Nc2ccc(OCC(F)F)c(C(=O)Nc3ccc(F)cc3Cl)c2)c1)C(F)(F)F", "ASSAY_ENDPOINT": "IC50", "OBSERVED": 6}
{"COMPOUND": "CC(C)(C(=O)NCc1ccc(Cl)c(C(=O)Nc2ccc(OCC(F)F)c(C(=O)Nc3cc(C(F)(F)F)ccn3)c2)c1)C(F)(F)F", "ASSAY_ENDPOINT": "IC50", "OBSERVED": 13}
{"COMPOUND": "CC(C)(C(=O)NCc1ccc(Cl)c(C(=O)Nc2ccc(OCC(F)F)c(C(=O)NCCC3CC3)c2)c1)C(F)(F)F", "ASSAY_ENDPOINT": "IC50", "OBSERVED": 6}

A = CC(C)(C(=O)NCc1ccc(Cl)c(C(=O)Nc2ccc(OCC(F)F)c(C(=O)Nc3nc4c(s3)CCC4)c2)c1)C(F)(F)F
B = CC(C)(C)C(=O)NCc1ccc(Cl)c(C(=O)Nc2cnc(OCC(F)F)c(C(=O)Nc3cc(F)cc(Cl)c3)c2)c1Cl
QUERY: Parameter metric = IC50. Return the lower-valued option from A and B . Use the label to indicate which entry you chose.
RESULT: B

====

biological target: recombinant human mPGES-1 (Homo sapiens, UniProt O14684); test: Assay B: mPGES-1 enzyme assay (modified); type: biochemical; conditions: biological assay B (all other compounds); PGH2 final conc. 2 μM, HTRF; read-out: mPGES-1 inhibitory effect IC50
ASSAY_ENDPOINT: IC50 (nM)

Worked examples follow.
{"COMPOUND": "CC(C)(C(=O)NCc1ccc(Cl)c(C(=O)Nc2ccc(OCC(F)F)c(C(=O)NC[C@@H]3CCCO3)c2)c1)C(F)(F)F", "TARGET_OR_TEST_SYSTEM": "recombinant human mPGES-1 (Homo sapiens, UniProt O14684)", "OBSERVED": 40}
{"COMPOUND": "CC(C)(C)C(=O)NCc1ccc(Cl)c(C(=O)Nc2ccc(OCC(F)F)c(C(=O)Nc3ccc(Br)cc3)c2)c1F", "TARGET_OR_TEST_SYSTEM": "recombinant human mPGES-1 (Homo sapiens, UniProt O14684)", "OBSERVED": 4}
{"COMPOUND": "CC(C)(C)C(=O)NCc1ccc(Cl)c(C(=O)Nc2ccc(N[C@H]3CC[C@H](C(F)(F)F)CC3)c(C(=O)N[C@H]3CC[C@H](C(F)(F)F)CC3)c2)c1", "TARGET_OR_TEST_SYSTEM": "recombinant human mPGES-1 (Homo sapiens, UniProt O14684)", "OBSERVED": 128}
{"COMPOUND": "CC(C)(C(=O)NCc1ccc(Cl)c(C(=O)Nc2ccc(OCC(F)F)c(C(=O)NC3CCC(C(F)F)CC3)c2)c1Cl)C(F)(F)F (stereo not shown)", "TARGET_OR_TEST_SYSTEM": "recombinant human mPGES-1 (Homo sapiens, UniProt O14684)", "OBSERVED": 4}
{"COMPOUND": "CC(C)(C)C(=O)NCc1ccc(Cl)c(C(=O)Nc2ccc(N3CCC(C(F)(F)F)CC3)c(C(=O)N[C@H]3CC[C@H](C(F)(F)F)CC3)c2)c1", "TARGET_OR_TEST_SYSTEM": "recombinant human mPGES-1 (Homo sapiens, UniProt O14684)", "OBSERVED": 3}
{"COMPOUND": "CC(C)(C(=O)NCc1ccc(Cl)c(C(=O)Nc2ccc(OCC(F)F)c(C(=O)Nc3nc4ccc(Cl)cc4s3)c2)c1)C(F)(F)F", "TARGET_OR_TEST_SYSTEM": "recombinant human mPGES-1 (Homo sapiens, UniProt O14684)", "OBSERVED": 7}
{"COMPOUND": "CC(C)(C)C(=O)NCc1ccc(Cl)c(C(=O)Nc2ccc(OC3CCOC3)c(C(=O)Nc3ccc(Br)cc3)c2)c1 (stereo not shown)", "TARGET_OR_TEST_SYSTEM": "recombinant human mPGES-1 (Homo sapiens, UniProt O14684)", "OBSERVED": 5}
{"COMPOUND": "CC(C)(C(=O)NCc1ccc(Cl)c(C(=O)Nc2ccc(OCC(F)F)c(C(=O)Nc3ccnc4ccccc34)c2)c1)C(F)(F)F", "TARGET_OR_TEST_SYSTEM": "recombinant human mPGES-1 (Homo sapiens, UniProt O14684)", "OBSERVED": 9}

a = CN1CCC[C@H]1C(=O)NCc1ccc(Cl)c(C(=O)Nc2ccc(OCC(F)F)c(C(=O)Nc3ccc(Br)cc3)c2)c1
b = CC(C)(C(=O)NCc1ccc(Cl)c(C(=O)Nc2ccc(OCC(F)F)c(C(=O)NC3CC4CCC3C4)c2)c1)C(F)(F)F (stereo not shown)
c = CC(C)(C)C(=O)NCc1ccc(Cl)c(C(=O)Nc2ccc(N3CCC(F)(F)CC3)c(C(=O)Nc3ccc(Br)cc3)c2)c1Cl
QUERY: Given 3 compounds, produce a descending ranking by IC50. # respond with the labels, arranged in the requested order
RESULT: a, b, c
